system: K562; experiment: NCI tumour cell line growth inhibition, 48 h
Calls of active or inactive are those of the source. Rule as the data show it: active = GI50 up to about 1.1 µM and inactive = higher.
observation_type: GI50

Some solved cases for reference:
*Q* Sample CCCCCCC(O)C(O)CCC(O)C1CCC(CCCCC(O)CC2=CC(C)OC2=O)O1 (stereo not drawn) [ACETOGENINS] — what was its GI50?
*A* 1.82 µM (inactive)

*Q* How about CN1c2ccccc2NC(CC(=O)O)C2CC=CN21 (stereo not drawn) ?
*A* > 100 µM (inactive)

---
*Q* GI50 for `O=c1c2cc(-c3ccccc3)sc2nc2n1N=C(c1ccc(Cl)cc1)CS2` ?
*A* > 100 µM (inactive)

* * *

Readings of GI50 for the listed compounds
test system: OVCAR-5; test: NCI tumour cell line growth inhibition, 48 h
Activity calls are given as the source filed them. Rule as the data show it: active = GI50 up to about 1.1 µM and inactive = higher.

Please review the following examples before continuing.
*Q* Value lookup for GI50; key = `O=C(COc1ccc(OCC(=O)N2C(=O)CC(=O)N(c3ccccc3)C2=S)cc1)N1C(=O)CC(=O)N(c2ccccc2)C1=S`
*A* > 100 µM (inactive)

*Q* Entry `Nc1nc(Nc2ccccc2)sc1C(=O)c1ccc(Cl)cc1` please
*A* > 100 µM (inactive)

Next:
*Q* For the compound shown here, `COc1ccc2c(C)c(Oc3c(Cl)c(Cl)c(O)c(C#N)c3C#N)oc2c1` , give the reported GI50.
*A* > 100 µM (inactive)

* * *

tested on: HCC 2998; assay: NCI tumour cell line growth inhibition, 48 h
Calls of active or inactive are those of the source. Rule as the data show it: active = GI50 up to about 1.1 µM and inactive = higher.
GI50 listing for selected compounds.

Some compounds with recorded GI50:
*Q* If you can, please state the reported GI50 value of `C=C1c2c(n(S(=O)(=O)c3ccccc3)c3ccccc23)[C@@]2(C(=O)OC)CC3C=CC2N1C3` .
*A* > 100 µM (inactive)

*Q* Input Cc1ccc2c(c1)-c1c3c(nn1C)-c1ccccc1SC3O2 (stereo not drawn)
*A* 34 µM (inactive)

Below: the item to evaluate.
*Q* Which measured GI50 value corresponds to `COC(=O)c1c(C(=O)OC)c(-c2ccccc2)n(-c2ccccc2)c(=O)c1-c1ccccc1` ?
*A* > 100 µM (inactive)

* * *

tested on: LOX IMVI; experiment: NCI tumour cell line growth inhibition, 48 h
Activity calls are given as the source filed them. Rule as the data show it: active = GI50 up to about 1.1 µM and inactive = higher.
Your answer must be one of the following: active, inactive

For orientation, consider the following solved cases.
*Q* Which result was noted for this molecule in the test: COc1ccc(C2C(C(=O)c3ccccc3)=C(O)C(O)(CC(=O)c3ccccc3)N2c2ccc(OC)cc2)cc1 (stereo not drawn)
*A* inactive

*Q* Subsequent entry: `COc1ccc(/C(Cl)=C(\C=O)c2ccc([N+](=O)[O-])cc2)cc1`
*A* inactive

*Q* // query: `CC(=O)Nc1ccc(/C=C/[N+](=O)[O-])cc1`
*A* inactive

*Q* Next: `CCc1cc(=O)n(/C(C)=C/c2ccccc2)n1C`
*A* inactive

*Q* Try this molecule too: OCCSCC(O)Cn1cnc2c(O)nc(Nc3ccccc3)nc21 (stereo not drawn)
*A* inactive

# ---- query molecule ----
*Q* What was the test verdict on COc1cccc2c1C(=O)c1c(O)c3c(c(O)c1C2=O)C[C@@](O)(C(=O)CO)CC3OC1CC(NCCOCC(OC(C)=O)OC(C)=O)C(O)C(C)O1 (stereo partly drawn) ?
*A* active

* * *

system: A498; assay: NCI tumour cell line growth inhibition, 48 h
Active and inactive are the calls of the source. Rule as the data show it: active = GI50 up to about 1.1 µM and inactive = higher.
The entries below are paired with their reported GI50.

Some entries whose results are on file:
*Q* Request the reported GI50 associated with `CC(=O)c1cccn1/C=C(\OC(=O)OC(C)(C)C)c1ccc[nH]1`
*A* 34.8 µM (inactive)

*Q* Proceed to `Oc1ccc2c(c1)-c1c(c3ccccc3n1CCN1CCOCC1)CC2`
*A* > 100 µM (inactive)

*Q* Same again, this time with `C=Cc1ccccc1C1(O)C=CC(OC)(OC)C=C1`
*A* 23.2 µM (inactive)

*Q* Would you kindly repeat that for COCCN(C(=O)c1ccccc1)C1CCC2(SCCS2)c2[nH]c3ccccc3c21 (centres undefined) ?
*A* 45.7 µM (inactive)

*Q* Param item: CC(C)[C@@H]1ON1C(C)c1ccccc1 (some centres undefined)
*A* > 100 µM (inactive)

New cases:
*Q* GI50 for COc1ccc(CC(COS(=O)(=O)c2ccc(C)cc2)NS(=O)(=O)c2ccc(C)cc2)cc1 (centres undefined) ?
*A* 12.8 µM (inactive)

*Q* Moving on to the next compound: `C=CCN1CN(C2CCCCC2)CSC1=S`
*A* 14.3 µM (inactive)

*Q* Lookup `O=c1/c(=C/c2ccc(-c3ccc(Cl)cc3Cl)o2)sc2n1[C@@H](c1ccc(Cl)cc1)C=C(c1cc(F)c(Cl)cc1Cl)N=2`
*A* 2.05 µM (inactive)

*Q* Cool, now `Cc1ccc(S(=O)(=O)n2cc(-c3cnc(N)c(Br)n3)c3ccccc32)cc1`
*A* 2.68 µM (inactive)

*Q* Same thing, different compound: `Cc1nc2c(=O)[nH]c3ccc(Cl)cc3c2o1`
*A* > 100 µM (inactive)

*Q* How about `Cc1cccc(/C=N/N=C(\N)NO)n1` ?
*A* > 100 µM (inactive)

*Q* Same question, `N#Cc1ncc(C(Cl)Cl)nc1Cl` this time
*A* > 10 µM (inactive)

*Q* Subsequent entry: NC1CCC[C@H]1O (some centres undefined)
*A* > 100 µM (inactive)

*Q* Same read-out for `O=C(COc1ccc(/C=C/C(=O)c2ccc(Cl)cc2)cc1)Nc1c(Cl)cccc1Cl` ?
*A* > 100 µM (inactive)
